Assay: NCI Yeast Anticancer Drug Screen. Data for the rad50 strain (AID 155);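 further: 0% = growth of vehicle-only cultures of the same strain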
Conditions: S. cerevisiae rad50 strain growth inhibition; at 5.0 µM (retest, dose inferred, filed as 0.5)
This is part of a sample that, as a whole, favours compounds with a hit. Of some 79,000 tested, about 15% had one in any assay. Active and inactive are the calls of the source. No stated cut-off is given here; in the data, active means growth inhibition above about 70%; inactive means the rest.
Just give me one of these, please: class 1 (active), class 0 (inactive)

Below, 5 compounds whose answers are already recorded.
Compound	Class assignment
COc1ccc2c(N3CCN(C(=O)C(Cl)(Cl)Cl)CC3)cc(C)nc2c1	class 0
Cc1cc(NC(=S)SCc2ccc(Cl)cc2)c([N+](=O)[O-])cc1C	class 0
CC1CCCCC12C(C#N)(C#N)C2(C#N)C#N (stereo unspecified)	class 0
Cc1c(Cl)cccc1NC(=O)/C(Cl)=C(\Cl)C(=O)O	class 0
COC1=CC(=O)c2c(ccc3ncnc(N)c23)C1=O	class 0

**Q:** Hey, what did the test say about `C/C(=N\NC(=S)N1CCN(C2CCCCCC2)CC1)c1ccccn1` ?
**A:** class 0

**Q:** Check the results log: what was the call for `O=C(/C(Cl)=N/O)c1ccccc1` ?
**A:** class 1

**Q:** Name the outcome recorded for `O=P(O)(O)Oc1c(O)c2ccccc2c2ccccc12` in the assay.
**A:** class 0

**Q:** Dear all, I need the recorded test outcome for `CCc1nc(N)nc(N)c1-c1ccc(N(C)Cc2ccccc2)c([N+](=O)[O-])c1` , thank you.
**A:** class 0

**Q:** Could you kindly confirm the outcome this assay logged for `O=[N+]([O-])c1ccc(C2=C[P+](c3ccccc3)(c3ccccc3)C=C(c3ccccc3)O2)cc1` ?
**A:** class 0

**Q:** Test call for this compound, please: C1=NN(c2ccccc2)C2c3ccccc3CCCC12 (stereo unspecified)
**A:** class 0

**Q:** What did this assay record as the result for `Cc1ccc(C(=O)C(CN(C)C)CN(C)C)cc1C` ?
**A:** class 0

**Q:** Per the records of this test, what outcome belongs to `COc1ccc(/C(Cl)=C(\c2ccc(OCCN(C)C)cc2)c2ccc(OC(=O)C(C)(C)C)cc2)cc1` ?
**A:** class 0

**Q:** Entry COC(=O)C1(OC(=O)CCC(=O)O)C(=O)NC2=C1C(=O)c1ccccc1C2=O (stereo unspecified) : call = ?
**A:** class 0

**Q:** Please share the test call associated with CC12CCC(=O)C=C1C=CC1C2CCC2(C)C1CCC21CCC(=O)O1 (stereo unspecified) .
**A:** class 0

**Q:** # lookup: test call for `OCC1CCCCCCCCCCC1`
**A:** class 0

**Q:** Can you look up the reported call for `N#CCCN(C(=S)Nc1ccc(Cl)c(Cl)c1)C1CCCCC1` for me?
**A:** class 0

**Q:** Each compound tested received a call. Report the one for `ClC1=CC(Cl)=C2N=C(C(Cl)(Cl)Cl)N=C3N=C(C(Cl)(Cl)Cl)N=C1N32` .
**A:** class 0
